system_under_test: partially purified aldose reductase enzyme obtained from human placenta (Homo sapiens)
Construct: partially purified aldose reductase enzyme obtained from human placenta; from tissue; host or cells: human placenta
protocol_text: inhibition of aldose reductase enzyme activity (procedure of Hayman et al., modified by Sestanj et al.)
Assay type: biochemical
experimental_context: 10^-5M
Would you mind labelling by inhibition at 10 µM? At or over 80% is 1 (yes), under is 0 (no).

molecule="C[C@H]1C[C@@]2(NC(=O)NC2=O)c2cc(Cl)cnc2O1 [Product of Example 10B]" classification="1 (yes)"
molecule="C[C@@H]1C[C@]2(NC(=O)NC2=O)c2cc(Cl)cnc2O1 [Product of Example 10A]" classification="1 (yes)"
molecule="CC1CC2(NC(=O)NC2=O)c2cc(Cl)cnc2O1 (racemic)" classification="0 (no)"
molecule="C[C@@H]1C[C@]2(NC(=O)NC2=O)c2cc(Cl)cnc2O1 (racemic) [Product of Example 4A]" classification="1 (yes)"
molecule="O=C1NC(=O)C2(CCOc3ncc(Cl)cc32)N1 (racemic)" classification="0 (no)"

Hello, I need to know if C[C@@H]1C[C@]2(NC(=O)NC2=O)c2cc(F)cnc2O1 (racemic) has measured inhibition at 10 µM not below 80%. Thanks! 0 (no)

# bool: inhibition at 10 µM of C[C@@H]1C[C@]2(NC(=O)NC2=O)c2cccnc2O1 (racemic) >= 80% 0 (no)
